Data origin: paper PMC4815068

- measurement.notes: clinical
- condition.details: human, in vivo, t1/2
measurement.label: half-life (h)
Return type: number; implicit unit h.

Tell me its half-life given C#Cc1cccc(Nc2ncnc3cc(OCCOC)c(OCCOC)cc23)c1 as the entry. 24.3
